assay: optical density change of DRC41 E. coli – strain DRC41, OD650, 24 h, E. coli filamentation project, primary screen (AID 1093);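 further: MC1000 strain lacking acrAB efflux and sulA so SOS filamentation is blocked; test concentration not given here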; details: E. coli DRC41 growth, higher = more signal, called active from +8 up or from −8 down
So I've got a bunch of compounds here, and I need their z-score values.
# answer = number (no unit)

The compound identified as "COc1ccc(CCNC(=O)[C@@]2(C)c3ccccc3C(=O)N(c3ccc(C)cn3)[C@H]2c2ccc(CO)cc2)cc1" registered its z-score at -0.121

For record C=CC1c2cc(O)c(OC)cc2CCN1Cc1cccc(OC(F)(F)F)c1 (stereo unspecified) the listed z-score is 0.148

z-score reading for "O=C(CS)NCCCCCNC(=O)[C@@H]1C[C@@H]2C(=O)NCC(=O)N2[C@@H]1c1ccc(O)cc1" : 2.13

# z-score (compound: "O=C1O[C@H](c2ccccc2)[C@H](c2ccccc2)N2[C@H]1[C@@H](C(=O)N1CCN(c3ncccn3)CC1)[C@]1(C(=O)Nc3ccc(C#CC4=CCCCC4)cc31)[C@H]2c1ccccc1OCCO" ) is 0.071

Lab note: O=C1OCC=C[C@H]2OC34C=CCN(CCN5CCOCC5)C(=O)[C@H]3N(CCO)C(=O)[C@@H]4[C@@H]12 (stereo partly specified) gave z-score of -0.653

For this compound ( "NC(=O)[C@@]1(Cc2ccccc2)N=C(c2ccc(OCCCO)cc2)O[C@H]1c1ccccc1" ), measured z-score is 1.95

###

system: Human papillomavirus type 1a E7 protein (residues 1-88); test: HPV1a E7 small-molecule binders, primary screen, biochemical, small-molecule microarray, residues 1-88, 635 nm (AID 1129); conditions: small-molecule microarray binding, fluorescence 635 nm; higher = more signal
The threshold is inclusive: composite z-score of exactly 1 counts as Met; values below receive Not met.

Ask | Has "COc1ccc([C@H]2C[C@H]3C(Br)=C[C@@]2(CO)C(=O)[C@]32CO2)cc1" a recorded composite z-score greater than or equal to 1?
Reply | Not met

Ask | // inclusive: composite z-score at least 1? input: "COC(=O)[C@H](Cc1ccccc1)N[C@H](/C=C/C1CC1)[C@@H](O)Cc1ccccc1"
Reply | Not met

Ask | Does composite z-score meet or surpass 1 for "CC(C)Cc1ccc(CN2CC[C@@H](N)C2)cc1" ?
Reply | Not met

Ask | Would you say O=C1C2C=CC(C(O)c3cc(C(F)(F)F)cc(C(F)(F)F)c3)N(Nc3ccccc3)C2C(=O)N1c1ccccc1 (centres undefined) shows composite z-score at minimum 1?
Reply | Met

Ask | Kindly determine if composite z-score recorded for "CC(C)[C@@H](C(=O)O)n1cc(C2(O)CCCCC2)nn1" is above or exactly 1.
Reply | Met

Ask | Does "[N-]=[N+]=Nc1ccccc1C[C@@]1(C(=O)N2CCCCC2)N=C(c2ccc(OCCCO)cc2)O[C@@H]1c1ccccc1N=[N+]=[N-]" have a reported composite z-score of at least 1?
Reply | Met

Ask | hey, is composite z-score for this one >= 1? "C=C(C(=O)CC[C@H](OC(C)=O)c1ccccc1OCCO)C(C)C"
Reply | Not met

Ask | State whether the measured composite z-score reaches 1, counting equality as reaching it, for "COc1cc2c(cc1O)C=[N+](Cc1cc3c(cc1Br)OCO3)CC2"
Reply | Not met

Ask | Does the reported composite z-score for "C=CCOC(=O)[C@H]1[C@@H]2C(=O)O[C@@H](c3ccccc3)[C@@H](c3ccccc3)N2[C@@H](c2ccc(OCCOC(=O)[C@@H]3C[C@@H]4C(=O)N5CCC[C@H]5C(=O)N4[C@@H]3c3cccc(OCCO)c3)cc2)[C@]12C(=O)Nc1ccc(I)cc12" fall at or above the 1 mark?
Reply | Met

Ask | State whether the measured composite z-score reaches 1, counting equality as reaching it, for "COCCCNC(=O)[C@@]1(Sc2ccc(C)cc2)CC(=O)N(Cc2ccccc2Cl)[C@@H]1c1ccc(CO)cc1"
Reply | Met

Ask | Item CCCCC(O)C1C=CC2C(=O)N(C)C(=O)C2N1N1CCCCC1 (centres undefined) with composite z-score of 1 or above?
Reply | Not met

Ask | Is the recorded value of composite z-score equal to or greater than 1 for this compound? "COCCOC(=O)N1C(=O)[C@@]2(c3ccccc31)[C@H](C(N)=O)[C@H]1C(=O)O[C@H](c3ccccc3)[C@H](c3ccccc3)N1[C@@H]2c1ccc(O)cc1"
Reply | Met
